Molecular target: human β3 adrenergic receptor (Homo sapiens)
Construct: expressed in transfected cells; host or cells: DXB-11 Chinese hamster ovary (CHO) cell line, stably transfected (phd expression vector)
Sequence (P13945 whole entry): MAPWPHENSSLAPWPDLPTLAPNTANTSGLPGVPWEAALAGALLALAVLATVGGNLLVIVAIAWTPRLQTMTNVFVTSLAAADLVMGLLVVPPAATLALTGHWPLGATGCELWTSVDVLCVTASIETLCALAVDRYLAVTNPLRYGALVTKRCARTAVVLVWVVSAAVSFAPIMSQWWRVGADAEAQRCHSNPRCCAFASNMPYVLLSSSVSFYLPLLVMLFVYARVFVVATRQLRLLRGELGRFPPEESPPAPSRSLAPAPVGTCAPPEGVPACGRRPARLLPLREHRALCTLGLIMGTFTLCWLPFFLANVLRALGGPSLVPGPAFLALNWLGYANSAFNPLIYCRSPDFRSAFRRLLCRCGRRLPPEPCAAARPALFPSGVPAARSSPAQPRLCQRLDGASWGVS
Assay: whole cell receptor coupled c-AMP assay (Emax relative to isoproterenol)
Assay type: cell-based
Settings: transfected CHO cells, c-AMP SPA; compound's maximal response divided by isoproterenol maximal response times 100; average of at least 3 runs; SEM in brackets; read-out: Emax (SEM), % intrinsic activity relative to isoproterenol
observationType: Emax (%)

[[record]]
molecule = "CC(C)(Cc1ccc(Oc2ncccc2C(N)=O)cc1)NC[C@H](O)COc1cccc2[nH]c(=O)n(CC3CCCC3)c12 [Example 20]"
unitdescriptor = "%"
measvalue = 66.8

[[record]]
molecule = "CC(C)(Cc1ccc(Oc2ncccc2C(N)=O)cc1)NC[C@H](O)COc1cccc2[nH]c(=O)n(CC3CC3)c12 [Example 15]"
unitdescriptor = "%"
measvalue = 80.1

[[record]]
molecule = "CC(C)(Cc1ccc(Oc2ncccc2C(N)=O)cc1)NC[C@H](O)COc1cccc2[nH]c(=O)n(CC3CCC3)c12 [Example 18]"
unitdescriptor = "%"
measvalue = 59.8

[[record]]
molecule = "CC(C)(C)Cn1c(=O)[nH]c2cccc(OC[C@@H](O)CNC(C)(C)Cc3ccc(Oc4ccc(C(N)=O)cn4)cc3)c21 [Example 12]"
unitdescriptor = "%"
measvalue = 65.5

[[record]]
molecule = "CC(C)(Cc1ccc(Oc2ccc(C(N)=O)cn2)cc1)NC[C@H](O)COc1cccc2[nH]c(=O)n(CC3CCC3)c12 [Example 17]"
unitdescriptor = "%"
measvalue = 58.2

[[record]]
molecule = "CC(C)(Cc1ccc(Oc2ccc(C(N)=O)cc2Cl)cc1)NC[C@H](O)COc1cccc2[nH]c(=O)n(CC3CC3)c12 [Example 16]"
unitdescriptor = "%"
measvalue = 76

[[record]]
molecule = "CC(C)(Cc1ccc(Oc2ccc(C(N)=O)cn2)cc1)NC[C@H](O)COc1cccc2[nH]c(=O)n(CC3CC3)c12 [Example 14]"
unitdescriptor = "%"
measvalue = 67.9

[[record]]
molecule = "CC(C)(Cc1ccc(Oc2ccc(C(N)=O)cn2)cc1)NC[C@H](O)COc1cccc2[nH]c(=O)n(CC3CCCC3)c12 [Example 19]"
unitdescriptor = "%"
measvalue = 63.7

[[record]]
molecule = "CC(C)(C)Cn1c(=O)[nH]c2cccc(OC[C@@H](O)CNC(C)(C)Cc3ccc(Oc4ncccc4C(N)=O)cc3)c21 [Example 13]"
unitdescriptor = "%"
measvalue = 66.4

